Numbers sourced from ChEMBL document CHEMBL4024784.

Target: Adenosine receptor A2b (Homo sapiens, UniProt P29275)
Sequence (P29275 whole entry): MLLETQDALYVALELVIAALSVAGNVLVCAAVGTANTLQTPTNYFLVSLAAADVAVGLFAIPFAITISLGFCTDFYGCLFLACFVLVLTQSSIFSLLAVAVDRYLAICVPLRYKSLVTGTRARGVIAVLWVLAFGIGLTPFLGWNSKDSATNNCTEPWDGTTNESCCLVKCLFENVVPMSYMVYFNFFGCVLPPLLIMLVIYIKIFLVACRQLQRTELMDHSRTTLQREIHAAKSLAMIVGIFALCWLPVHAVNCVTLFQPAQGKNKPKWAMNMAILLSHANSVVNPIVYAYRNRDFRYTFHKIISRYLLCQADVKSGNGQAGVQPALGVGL
Assay: Agonist activity at recombinant human adenosine A2B receptor expressed in CHO cell membranes assessed as stimulation of adenylyl cyclase activity in presence of […]
METRIC: EC50

Check out these entries, answers already filled in.
In [3]: df
Out[3]:
                                   compound  assay_result
0  Cc1cc(C)n(C[C@H]2O[C@@H](n3cnc4c(Nc5ccc(Cl)cc5F)ncnc43)[C@H](O)[C@@H]2O)n1       > 60 µM
1  O[C@@H]1[C@H](O)[C@@H](CCl)O[C@H]1n1cnc2c(N[C@@H]3CCOC3)ncnc21       12.8 µM
2  Cc1cc(C)n(C[C@H]2O[C@@H](n3cnc4c(NC5CCCC5)ncnc43)[C@H](O)[C@@H]2O)n1       > 60 µM

Please look at the items below and tell me EC50 for each one, in order.
1. O[C@@H]1[C@H](O)[C@@H](CCl)O[C@H]1n1cnc2c(Nc3ccc(Cl)cc3F)ncnc21
2. Cc1cc(C)n(C[C@H]2O[C@@H](n3cnc4c(Nc5ccc(Cl)cc5F)nc(Cl)nc43)[C@H](O)[C@@H]2O)n1
3. Cc1cc(C)n(C[C@H]2O[C@@H](n3cnc4c(N[C@@H]5CCOC5)ncnc43)[C@H](O)[C@@H]2O)n1

Result:
1. 3.74 µM
2. > 60 µM
3. > 60 µM

Please look at the items below and tell me EC50 for each one, in order.
1. O[C@@H]1[C@H](O)[C@@H](CCl)O[C@H]1n1cnc2c(Nc3ccc(Cl)cc3F)nc(Cl)nc21
2. Cc1cc(C)n(C[C@H]2O[C@@H](n3cnc4c(NC5CCCC5)nc(Cl)nc43)[C@H](O)[C@@H]2O)n1
3. Cc1cc(C)n(C[C@H]2O[C@@H](n3cnc4c(N[C@@H]5CCOC5)nc(Cl)nc43)[C@H](O)[C@@H]2O)n1
4. O[C@@H]1[C@H](O)[C@@H](CCl)O[C@H]1n1cnc2c(N[C@@H]3CCOC3)nc(Cl)nc21

Result:
> 60 µM
> 30 µM
> 60 µM
20 µM

Please look at the items below and tell me EC50 for each one, in order.
1. Cc1cc(C)n(C[C@H]2O[C@@H](n3cnc4c(NC5CC6CCC5C6)nc(Cl)nc43)[C@H](O)[C@@H]2O)n1 (mixture of isomers)
2. Cc1cc(C)n(C[C@H]2O[C@@H](n3cnc4c(NC5CC6CCC5C6)ncnc43)[C@H](O)[C@@H]2O)n1 (mixture of isomers)

Result:
1: > 30 µM; 2: > 30 µM
